test system: OVCAR-8 ovarian; experiment: NCI tumour cell line growth inhibition, 48 h
Recorded TGI by entry
Property: TGI

- COc1cc(/C=C2\CCC(C)C3=C2NC(=S)NC3c2cc(OC)c(OC)c(OC)c2)cc(OC)c1OC (stereo not drawn): > 100 µM
- BrC1(Br)C2/C=C\CCCCC21 (stereo not drawn): > 100 µM
- COc1cc(S(=O)(=O)Nc2ccc(C3=NNC(c4ccccc4)C3)cc2)ccc1F (stereo not drawn): > 100 µM
- COc1ccc2c(c1)[n+]([O-])c(/C(C)=N/NC(=O)CC#N)c[n+]2[O-]: > 100 µM
- OCC1OC(n2cnc3c(/C=C(/O)c4ccccc4)ncnc32)C(O)C1O (stereo not drawn): > 100 µM
- COC(=O)[C@@]12CCCC(=O)[C@@H]1[C@H]1CCCC[C@H]12: > 100 µM
- Fc1cccc(Cl)c1/C=N\N=C1c2ccccc2-c2ccccc21: > 100 µM
- Cc1c2ccc(N(C)c3ccnc(Nc4cccc(S(N)(=O)=O)c4)n3)cc2nn1C: > 25 µM
- C/C(O)=C/c1nc2ccc([N+](=O)[O-])cc2nc1/C=C(/C)O: > 100 µM
- O=c1[nH]c(=O)n(C2OC3COC2C3O)cc1F (stereo not drawn): > 100 µM
- CSC1=NS(=O)(=O)c2cc(C(=O)NN(C)C(=O)c3cc4c(cc3Cl)SC(SC)=NS4(=O)=O)c(Cl)cc2S1: > 10 µM
- COc1ccc2c(c1)/c(=C/c1ccc(N(C)C)cc1)c1cc(-c3ccccc3)[n+](C)n12: 0.44 µM
- COc1ccc(OC)c2c1C1CCC(=O)N1CN2C(C)=O (stereo not drawn): > 100 µM
- CC1(C)Oc2ccc(NC(=O)CCC(N)C(=O)O)cc2O1 (stereo not drawn): > 100 µM
- O=C1Nc2cccc3cc(NCC(O)CCl)cc1c23 (stereo not drawn): > 100 µM
- CC(C)(C)OC[C@H](O)CC#N: > 100 µM
- CC(=O)O[C@@H]1C2C(=O)OC(=O)C2C2CCC[C@]23O[C@H]13 (stereo partly drawn): > 100 µM
- O=C(NCc1ccc(Cl)cc1)c1cc2sccc2nc1C(F)(F)F: 72.1 µM
- COc1cc2c(cc1OC)-c1c3c(cc4c1[C@@H](C2)N(C)CC4)OCO3: 31.9 µM
- Cn1nc(S(N)(=O)=O)s/c1=N/C(N)=S: > 100 µM
- C[N+](C)(C)c1ncnc2c1ncn2C1CCCCO1 (stereo not drawn): > 100 µM
- NNc1nncn1N: > 100 µM
- COc1cc(C2S/C(=C/c3ccccc3)C(=O)N2c2ccc(Cl)c(Cl)c2)cc(OC)c1OC (stereo not drawn): > 100 µM
- Cc1cc(=O)oc2cc(O)ccc12: > 100 µM
- Cc1ccc(S(=O)(=O)c2c(O)c3ccccc3n(C)c2=O)cc1: > 100 µM
- CC(C)CNC(=O)Cn1c(-c2ccccc2)cc2ccccc21: > 100 µM
- C[C@]12CC[C@@H]3c4ccc(OC(=O)c5ccccc5)cc4CC[C@H]3[C@@H]1CC[C@@H]2Oc1c2ccccc2nc2ccccc12: 45 µM
- CCO/C(O)=C(/C(=N)N1CCCC1)C(=O)Nc1cccc(C(F)(F)F)c1: > 100 µM
- C/C(=N\NC(N)=S)c1nc2ccc(Cl)cc2[nH]1: 15.5 µM
- CSc1cc(N)ccc1N=Nc1ccc(S(N)(=O)=O)cc1: 53.6 µM
- Cn1c(=O)c2c(ncn2CN2CCN(Cn3cnc4c3c(=O)n(C)c(=O)n4C)CC2)n(C)c1=O: > 100 µM
- N#C[C@@H]1C(n2ccc(N)nc2=O)O[C@H](CO)[C@H]1O (stereo partly drawn): > 100 µM
- C=C1C(=O)O[C@H]2C[C@@]3(C)[C@H](O)CCC(=C)[C@@H]3[C@@H](OC(C)=O)[C@H]12: 50.4 µM
- CCOC(=O)CC1NC(=O)CS1 (stereo not drawn): > 100 µM
- Oc1ccc(CCc2cc(O)cc(O)c2)cc1: > 100 µM
- CCOc1cc(C2CC(c3ccc(NS(=O)(=O)c4cc([N+](=O)[O-])ccc4C)cc3)=NN2)ccc1O (stereo not drawn): > 100 µM
- COc1c(C)c(OC)c2c(c1O)[C@@H]1[C@@H]3Cc4c(OC)c(C)c(OC)c(O)c4[C@H](CNC(=O)c4cnc5ccccc5n4)N3[C@@H](C#N)[C@H](C2)N1C: 0.0212 µM
- CC(=O)N1CCN(C23OC4(N5CCN(C(C)=O)CC5)C5C6CC(C7C6C4C72)C53)CC1 (stereo not drawn): > 100 µM
- Cc1nc(C(N)=S)sc1C(=O)C/C(=N/N)C(=O)Nc1cccc(Cl)c1C: > 100 µM
- CN(Cc1cnc2nc(N)nc(N)c2n1)c1ccc(C(=O)NC(CCC(=O)NC(P(=O)(O)O)P(=O)(O)O)C(=O)O)cc1 (stereo not drawn): > 100 µM
- C#CCn1c(=O)c(C#N)c(O)c2cc3ccccc3nc21: > 100 µM
- Cc1cc(=O)oc2cc(O)c(CN(C)CC(=O)O)cc12: > 100 µM
- CC(=Nc1ccncc1)C(C)=Nc1ccncc1: > 100 µM

###

test system: OVCAR-8 ovarian; test: NCI tumour cell line growth inhibition, 48 h
Property: GI50

- COc1ccc(Cl)cc1Nc1nc(C(F)(F)F)ccc1C(=O)N/N=C/c1cc(OC)c(OC)c(OC)c1: 1.59 µM
- CCN(CCNc1ccc(C)c2sc3ccccc3c(=O)c12)CC(C)(C)O: 17.8 µM
- CC(C)(C)NC(=O)[C@H]1C[C@H]2CCCC[C@H]2CN1C[C@@H](O)[C@H](Cc1ccccc1)NC(=O)[C@H](CC(N)=O)NC(=O)c1ccc2ccccc2n1: 23 µM

###

test system: SW-620 colon; test: NCI tumour cell line growth inhibition, 48 h; in the data active = GI50 below about 0.43 µM; inactive = the rest
Outcomes: active, inactive

- N#C[C@@H]1C(n2ccc(N)nc2=O)O[C@H](CO)[C@H]1O (stereo partly specified): inactive
- CC(C)(C)NC(=O)[C@H]1C[C@H]2CCCC[C@H]2CN1C[C@@H](O)[C@H](Cc1ccccc1)NC(=O)[C@H](CC(N)=O)NC(=O)c1ccc2ccccc2n1: inactive
- COc1ccc(CN2c3ccccc3CCc3ccccc32)cc1F: active
- COc1cc(S(C)(=O)=O)ccc1Nc1nc2ccc(-c3ccc(NC(=O)[C@H](C)c4ccc(F)cc4)cc3)cn2n1: inactive
- COc1cc(S(=O)(=O)Nc2ccc(C3=NNC(c4ccccc4)C3)cc2)ccc1F (stereo unspecified): inactive
- COc1cc2nc(-c3ccc(C(F)(F)F)cc3)cc(OCCCN3CCCCC3)c2cc1OC: inactive

###

system: ACHN renal; assay: NCI tumour cell line growth inhibition, 48 h; in the data active = GI50 below about 0.43 µM; inactive = the rest
Outcomes: yes = active, no = inactive

• O=C1CC(=O)OC(c2ccc([N+](=O)[O-])cc2)O1 = no
• Cc1cc(-c2nnc3n2CCCCC3)c(C)n1-c1ccc(Cl)c(Cl)c1 = no
• C/C(=N\NC(N)=S)c1nc2ccc(Cl)cc2[nH]1 = no
• Cn1cc(CNCC2CCN(c3ncc(C(=O)NO)cn3)CC2)c2ccccc21 = yes
• N.N.N.N.N.N.O=N[O-].[Br-].[Co+3].[Co+3].[OH3+].[OH3+] = no
• COc1cc(S(C)(=O)=O)ccc1Nc1nc2ccc(-c3ccc(NC(=O)[C@H](C)c4ccc(F)cc4)cc3)cn2n1 = no

###

Here the recorded GI50 is given for each entry.
system: RPMI-8226 leukemia; assay: NCI tumour cell line growth inhibition, 48 h
Property: GI50

- CC(C)[C@H]1C(=O)N[C@@H](CCCN=C(N)N)C(=O)NCC(=O)N[C@@H](CC(=O)O)C(=O)N[C@H](Cc2ccccc2)C(=O)N1C: > 100 µM
- O=C([CH-]C(=O)C(F)(F)F)c1ccccc1.O=C([CH-]C(=O)C(F)(F)F)c1ccccc1.O=C([CH-]C(=O)C(F)(F)F)c1ccccc1.O=C([CH-]C(=O)C(F)(F)F)c1ccccc1.[Eu+3].c1ccncc1: 4.19 µM
- COC(=O)C1=C(C(=O)OC)SC(=C(Cl)C(=S)Sc2ccccc2N)S1: 51.8 µM
- Cc1cc(-c2nnc3n2CCCCC3)c(C)n1-c1ccc(Cl)c(Cl)c1: 9.53 µM
- N#C[C@@H]1C(n2ccc(N)nc2=O)O[C@H](CO)[C@H]1O (stereo not given in full): > 100 µM
- COc1cc(S(=O)(=O)Nc2ccc(C3=NNC(c4ccccc4)C3)cc2)ccc1F (stereo not given): 21.6 µM
- O=C1CCCN1CC#CCN1CCCC1: > 100 µM
- COc1ccc(C(=O)N2c3ccccc3Sc3ccccc32)c(C(F)(F)F)c1: 0.595 µM
- C[C@]12CC[C@@H]3c4ccc(O)cc4C(O)C[C@H]3[C@@H]1CCC2=O (stereo not given in full): 60.6 µM
- COc1ccc(Cn2c(Cl)c(/C=C3/C(=O)Nc4ccccc43)c3cc(OC)c(C)cc32)cc1: 4.26 µM
